FYI, the data here is from patent US8569292B2.

biological target: 11β-HSD1 (Homo sapiens); test: biochemical; settings: read-out: Average % inhibition at 100 nM
Collected inhibition at 0.1 µM values appear next to each entry.
value.kind: inhibition at 0.1 µM (%)

smiles.record	measured.value
C[C@@H](c1ccc(-c2cnccn2)cc1)N1CC[C@](CCCO)(c2ccc(F)cc2)OC1=O	98.1
C[C@@H](c1ccc(-c2ccc[n+]([O-])c2)cc1)N1CC[C@](CCC(N)=O)(c2ccccc2)OC1=O	81.2
COc1cc(-c2ccc([C@H](C)N3CC[C@](CCCO)(c4ccc(F)cc4)OC3=O)cc2)ccn1	98.7
C[C@@H](c1ccc(-c2nc(C(=O)NC(C)(C)C)cs2)cc1)N1CC[C@](CC(C)(C)O)(c2ccccc2)OC1=O	90

###

biological target: 11β-HSD1 (Homo sapiens, UniProt P28845); assay: biochemical; conditions: Biological Test Example 1 IC50 (nM)
Sequence (P28845 whole entry): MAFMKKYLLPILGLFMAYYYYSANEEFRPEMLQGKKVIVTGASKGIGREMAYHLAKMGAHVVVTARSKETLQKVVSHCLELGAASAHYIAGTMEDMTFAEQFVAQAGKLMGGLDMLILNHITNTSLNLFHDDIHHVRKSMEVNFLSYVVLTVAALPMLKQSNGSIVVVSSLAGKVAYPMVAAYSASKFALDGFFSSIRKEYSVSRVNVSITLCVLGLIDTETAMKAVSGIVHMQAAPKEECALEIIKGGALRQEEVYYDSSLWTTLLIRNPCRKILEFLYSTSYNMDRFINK
Collected log10 IC50 values appear next to each entry.
value.kind: log10 IC50 (log10 of the value in nM)

smiles.record	log10 IC50
C[C@@H](c1ccc(-c2nc(C(=O)NC3CC3)cs2)cc1)N1CC[C@](CC(C)(C)O)(c2ccccc2)OC1=O	0.28
Cc1cc(-c2ccc([C@H](C)N3CC[C@](CCCN4CCCC4=O)(c4ccccc4)OC3=O)cc2)ccn1	0.96
C[C@@H](c1ccc(-c2ccccn2)cc1)N1CC[C@](CCCO)(c2ccc(F)cc2)OC1=O	-0.30
Cc1nccn1-c1ncc(-c2ccc([C@H](C)N3CC[C@](CC(C)(C)O)(c4ccccc4)OC3=O)cc2)cn1	0.08
C[C@@H](c1ccc(-c2ccc(C(C)(C)O)nn2)cc1)N1CC[C@](CC(C)(C)O)(c2ccccc2)OC1=O	0.69
C[C@@H](c1ccc(-c2ccc(C(F)(F)F)cn2)cc1)N1CC[C@](CCCO)(c2ccc(F)cc2)OC1=O	0.46
C[C@@H](c1ccc(-c2ccccn2)cc1)N1CC[C@](CC(C)(C)O)(c2ccc(F)cc2)OC1=O	-0.10

###

molecular target: 11β-HSD1 (Homo sapiens, UniProt P28845); assay: biochemical; details: Biological Test Example 1 IC50 (nM)
Classes are defined on IC50 with ranges bin A = under 0.6 nM, bin B = from 0.6 nM up to 2 nM, bin C = 2 nM and over

molecule	assigned.category
Cc1ccc(-c2ccc([C@H](C)N3CC[C@](CCCO)(c4ccc(F)cc4)OC3=O)cc2)nn1 [EXAMPLE 114]	bin B
Cc1cccc(-c2ccc([C@H](C)N3CC[C@](CCCO)(c4ccc(F)cc4)OC3=O)cc2)n1 [EXAMPLE 62]	bin A
C[C@@H](c1ccc(-c2cncc(C(N)=O)n2)cc1)N1CC[C@](CC(C)(C)O)(c2ccc(F)cc2)OC1=O [EXAMPLE 159]	bin C
C[C@@H](c1ccc(-c2ccc(C#N)cn2)cc1)N1CC[C@](CCCO)(c2ccc(F)cc2)OC1=O [EXAMPLE 101]	bin B
C=CC[C@]1(c2ccc(F)cc2)CCN([C@@H](C)c2ccc(-c3cncc(F)c3)cc2)C(=O)O1 [EXAMPLE 51]	bin B
C[C@@H](c1ccc(-c2cccc(OC3CCCC3)n2)cc1)N1CC[C@](CC(C)(C)O)(c2ccccc2)OC1=O [EXAMPLE 28]	bin B
COc1ccc(-c2ccc([C@H](C)N3CC[C@](CCCO)(c4ccc(F)cc4)OC3=O)cc2)cn1 [EXAMPLE 65]	bin A
C[C@@H](c1ccc(-c2ncccn2)cc1)N1CC[C@](CCCO)(c2ccc(F)cc2)OC1=O [EXAMPLE 113]	bin C

###

biological target: CYP2C9 (Homo sapiens, UniProt P11712); construct: purchased Invitrogen 2859; host or cells: insect cells infected with baculovirus (microsomes); assay: Biological Test Example 9: CYP2C9 inhibition (Invitrogen kit, fluorogenic OOMR); format: in vitro ADME
Sequence (P11712 whole entry): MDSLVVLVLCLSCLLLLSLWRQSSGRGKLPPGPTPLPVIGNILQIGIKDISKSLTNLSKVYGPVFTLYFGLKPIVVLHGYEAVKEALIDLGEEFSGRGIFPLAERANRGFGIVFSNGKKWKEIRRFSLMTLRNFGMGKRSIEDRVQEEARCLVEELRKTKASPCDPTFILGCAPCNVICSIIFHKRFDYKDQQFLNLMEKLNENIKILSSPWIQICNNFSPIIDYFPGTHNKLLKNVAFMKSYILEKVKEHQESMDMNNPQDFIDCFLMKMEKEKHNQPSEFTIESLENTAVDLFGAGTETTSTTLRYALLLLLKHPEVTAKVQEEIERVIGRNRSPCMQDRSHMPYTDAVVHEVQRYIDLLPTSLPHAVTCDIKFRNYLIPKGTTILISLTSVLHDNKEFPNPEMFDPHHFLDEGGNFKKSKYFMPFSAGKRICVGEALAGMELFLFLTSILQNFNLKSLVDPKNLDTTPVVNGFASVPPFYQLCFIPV
pIC50: −log10 of the molar value.
value.kind: pIC50

smiles.record	operator.symbol	measured.value
C[C@@H](c1ccc(-c2ccc[n+]([O-])c2)cc1)N1CC[C@](CCCO)(c2ccccc2)OC1=O	<	4.52
Cc1nnc(CC[C@]2(c3ccccc3)CCN([C@@H](C)c3ccc(-c4ccc(C#N)cn4)cc3)C(=O)O2)o1	<	4.52
Cc1cc(-c2ccc([C@H](C)N3CC[C@](CCCO)(c4ccc(F)cc4)OC3=O)cc2)nc(C)n1	<	4.52
C[C@@H](c1ccc(-c2ccc(F)cn2)cc1)N1CC[C@](CC(C)(C)O)(c2ccccc2)OC1=O	=	5.02
Cc1cc(-c2ccc([C@H](C)N3CC[C@](CCCN4CCCS4(=O)=O)(c4ccccc4)OC3=O)cc2)ccn1	=	5.02
COc1ccc(-c2ccc([C@H](C)N3CC[C@](CC(C)(C)O)(c4ccc(F)cc4)OC3=O)cc2)cn1	=	5.33
C[C@@H](c1ccc(-c2cccnc2)cc1)N1CC[C@](CCNS(C)(=O)=O)(c2ccccc2)OC1=O	=	4.85
C[C@@H](c1ccc(-c2ccccn2)cc1)N1CC[C@](CC(C)(C)O)(c2ccc(F)cc2)OC1=O	=	4.77
Cc1ncc(-c2ccc([C@H](C)N3CC[C@](CC(C)(C)O)(c4ccccc4)OC3=O)cc2)cn1	=	4.76
C[C@@H](c1ccc(-c2ccc(C(F)(F)F)nc2)cc1)N1CC[C@](CCCO)(c2ccc(F)cc2)OC1=O	=	5.85
C[C@@H](c1ccc(-c2ccccn2)cc1)N1CC[C@](CCCNS(C)(=O)=O)(c2ccccc2)OC1=O	=	4.88

###

Collected IC50 values appear next to each entry.
molecular target: 11β-HSD1 (Homo sapiens); test: Biological Test Example 4: microsomal 11β-HSD1 in the presence of 50% human plasma

smiles.record	IC50 / nM
C[C@@H](c1ccc(-c2nc(C(=O)NC3CC3)cs2)cc1)N1CC[C@](CC(C)(C)O)(c2ccccc2)OC1=O	19.8
Cc1cc(-c2ccc([C@H](C)N3CC[C@](CC(C)(C)O)(c4ccc(F)cc4)OC3=O)cc2)cc(C)[n+]1[O-]	11.1
Cc1cc(-c2ccc([C@H](C)N3CC[C@](CCCN(C)S(C)(=O)=O)(c4ccccc4)OC3=O)cc2)ccn1	29.7
Cc1cc(-c2ccc([C@H](C)N3CC[C@](CCO)(c4ccc(F)cc4)OC3=O)cc2)ccn1	9.8
C[C@@H](c1ccc(-c2ccc(C(=O)NC(C)(C)C)cn2)cc1)N1CC[C@](CC(C)(C)C#N)(c2ccccc2)OC1=O	7.9
C[C@@H](c1ccc(-c2cncnc2)cc1)N1CC[C@](CCCO)(c2ccc(F)cc2)OC1=O	17.3
Cc1nccc(-c2ccc([C@H](C)N3CC[C@](CC(C)(C)O)(c4ccccc4)OC3=O)cc2)n1	5.4
C=CC[C@]1(c2ccc(F)cc2)CCN([C@@H](C)c2ccc(-c3sc(C)nc3C)cc2)C(=O)O1	34.3
C[C@@H](c1ccc(-c2ccc(C(=O)NC3CC3)nn2)cc1)N1CC[C@](CC(C)(C)C#N)(c2ccccc2)OC1=O	3.4
C[C@@H](c1ccc(-c2ccncc2)cc1)N1CC[C@](CCC(N)=O)(c2ccccc2)OC1=O	3.9
C[C@@H](c1ccc(-c2ccn(C)n2)cc1)N1CC[C@](CCCO)(c2ccccc2)OC1=O	6
C[C@@H](c1ccc(-c2ccc(C#N)cn2)cc1)N1CC[C@](CCCO)(c2ccccc2)OC1=O	3.7

###

Collected IC50 values appear next to each entry.
biological target: CYP2C9 (Homo sapiens, UniProt P11712); construct: purchased Invitrogen 2859; host or cells: insect cells infected with baculovirus (microsomes); assay: Biological Test Example 7: CYP2C9 inhibition (naproxen O-demethylation); type: in vitro ADME

compound	unit.abbreviation	operator.symbol	IC50
C[C@@H](c1ccc(-c2nnc(C(F)(F)F)s2)cc1)N1CC[C@](CC(C)(C)O)(c2ccccc2)OC1=O [EXAMPLE 179]	µM	=	10.7
Cc1cc(-c2ccc([C@H](C)N3CC[C@](CC(C)(C)O)(c4ccc(F)cc4)OC3=O)cc2)cc(C)n1 [EXAMPLE 144]	µM	=	10.2
C[C@@H](c1ccc(-c2ccc(C(=O)NC3CC3)cn2)cc1)N1CC[C@](CC(C)(C)O)(c2ccccc2)OC1=O [EXAMPLE 161]	µM	=	36
Cc1cc(-c2ccc([C@H](C)N3CC[C@](CC(C)(C)O)(c4ccc(F)cc4)OC3=O)cc2)ccn1 [EXAMPLE 76]	µM	=	2.9
CCOc1ncc(-c2ccc([C@H](C)N3CC[C@](CC(C)(C)O)(c4ccccc4)OC3=O)cc2)cc1C [EXAMPLE 160]	µM	=	2.3
C[C@@H](c1ccc(-c2ccc(C(N)=O)cn2)cc1)N1CC[C@](CC(C)(C)O)(c2ccccc2)OC1=O [EXAMPLE 143]	µM	>	50
C[C@@H](c1ccc(-c2ccc(F)cn2)cc1)N1CC[C@](CC(C)(C)O)(c2ccccc2)OC1=O [EXAMPLE 136]	µM	=	20.1
C[C@@H](c1ccc(-c2cscn2)cc1)N1CC[C@](CC(C)(C)O)(c2ccccc2)OC1=O [EXAMPLE 175]	µM	=	29.8
C[C@@H](c1ccc(-c2nc(C(=O)NC(C)(C)C)cs2)cc1)N1CC[C@](CC(C)(C)O)(c2ccccc2)OC1=O [EXAMPLE 22]	µM	=	4.5
Cc1ccc(-c2ccc([C@H](C)N3CC[C@](CC(C)(C)C#N)(c4ccccc4)OC3=O)cc2)nn1 [EXAMPLE 166]	µM	=	9
C[C@@H](c1ccc(-c2ccc(C(=O)NC3CC3)nn2)cc1)N1CC[C@](CC(C)(C)O)(c2ccccc2)OC1=O [EXAMPLE 10]	µM	=	21.2
C[C@@H](c1ccc(-c2ccncn2)cc1)N1CC[C@](CC(C)(C)O)(c2ccccc2)OC1=O [EXAMPLE 131]	µM	=	14
C[C@@H](c1ccc(-c2cnccn2)cc1)N1CC[C@](CC(C)(C)O)(c2ccccc2)OC1=O [EXAMPLE 130]	µM	>	50
CNC(=O)c1ccc(-c2ccc([C@H](C)N3CC[C@](CC(C)(C)O)(c4ccccc4)OC3=O)cc2)cn1 [EXAMPLE 169]	µM	=	45.2
Cc1cc(-c2ccc([C@H](C)N3CC[C@](CCO)(c4ccc(F)cc4)OC3=O)cc2)ccn1 [EXAMPLE 75]	µM	=	12.2
Cc1ncc(-c2ccc([C@H](C)N3CC[C@](CC(C)(C)O)(c4ccccc4)OC3=O)cc2)cn1 [EXAMPLE 149]	µM	>	50
C[C@@H](c1ccc(-c2ccc(C3CC3)nn2)cc1)N1CC[C@](CC(C)(C)O)(c2ccccc2)OC1=O [EXAMPLE 4]	µM	=	19.8
Cc1nc(-c2ccc([C@H](C)N3CC[C@](CC(C)(C)O)(c4ccccc4)OC3=O)cc2)ccc1C#N [EXAMPLE 1]	µM	=	12.9
Cc1nn(C)c(C)c1-c1ccc([C@H](C)N2CC[C@](CC(C)(C)O)(c3ccccc3)OC2=O)cc1 [EXAMPLE 177]	µM	=	8.8
